experimentalSystem: human D2 receptors (Homo sapiens, UniProt P14416)
Construct: expressed in transfected cells; host or cells: HEK-293T
Sequence (P14416 whole entry): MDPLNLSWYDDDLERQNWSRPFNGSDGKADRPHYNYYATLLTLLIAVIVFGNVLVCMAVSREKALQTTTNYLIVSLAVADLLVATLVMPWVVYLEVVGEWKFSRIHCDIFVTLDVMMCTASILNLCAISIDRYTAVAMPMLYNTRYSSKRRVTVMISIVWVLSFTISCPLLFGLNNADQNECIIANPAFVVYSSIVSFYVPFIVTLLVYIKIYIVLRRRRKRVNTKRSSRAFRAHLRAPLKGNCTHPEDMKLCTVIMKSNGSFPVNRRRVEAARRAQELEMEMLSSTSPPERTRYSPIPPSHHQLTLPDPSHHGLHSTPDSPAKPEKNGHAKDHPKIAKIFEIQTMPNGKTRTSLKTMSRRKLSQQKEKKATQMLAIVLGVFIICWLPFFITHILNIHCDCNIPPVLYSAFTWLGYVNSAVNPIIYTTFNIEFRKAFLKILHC
protocolSummary: competitive radioligand D2 binding assay, (Methoxy-3H)-raclopride, membranes of transfected HEK-293T cells
cond: mean of one or two experiments; butaclamol as control
parameterMeasured: Ki (nM)
Field format: number, assumed nM, no unit text.

Ki for Clc1ccc2c(c1)N=C(N1CCNCC1)c1ccccc1C2 is 12.6

Ki for Cc1cccc2c1Nc1ccc(Cl)cc1N=C2N1CCNCC1 is 6310

Ki for Brc1ccc2c(c1)N=C(N1CCNCC1)c1ccccc1N2 is 158

We next turn to a different compound, shown below.
Ki for Brc1ccc2c(c1)N=C(N1CCNCC1)c1ccccc1O2 is 126
